All figures here come from PubChem BioAssay AID1159580.

METHOD DESCRIPTION: chemical genetic growth profiling, strain panel (AID 1159580);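 note: tested at 20 µM; growth read once vehicle control cultures reached saturation at 30 °C; lower values mean less growth of the strain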
EXPERIMENTAL PARAMETERS: S. cerevisiae deletion strains, growth OD, locus YDL040C, strain nat1
In all, about 5,500 compounds went through this assay and about 2,000 (36%) were called active. Roughly 18% stayed inconclusive and do not appear here. Cut-off read from the data, not from the text of the source: active = normalized growth mostly below about 0.91 (no sharp cut-off); inconclusive = no clear call, values can overlap the other calls; inactive = mostly above about 0.92. The list shows a part of the results.
Possible outcomes: active, inactive

- COMPOUND: "NC(N)=NOCC[C@H](N)C(=O)O"
  ANSWER LABEL: "inactive"
- COMPOUND: "CCc1nc(N)nc(N)c1-c1ccc(Cl)cc1"
  ANSWER LABEL: "inactive"
- COMPOUND: "CN1CCc2cc3c(cc2C1O)OCO3 (stereo unspecified)"
  ANSWER LABEL: "inactive"
- COMPOUND: "COc1ccc(-c2coc3c(OC)c(OC)cc(O)c3c2=O)cc1"
  ANSWER LABEL: "inactive"
- COMPOUND: "CN=C(NC#N)NCCSCc1nc(N=C(N)N)cs1"
  ANSWER LABEL: "inactive"
- COMPOUND: "CC(C)CC1C(=O)N2CCC[C@H]2C2(O)O[C@](NC(=O)C3C=C4c5cccc6[nH]c(Br)c(c56)C[C@H]4N(C)C3)(C(C)C)C(=O)N12 (stereo partly specified)"
  ANSWER LABEL: "inactive"
- COMPOUND: "OCCN(CCO)c1nc(N2CCCCC2)c2nc(N(CCO)CCO)nc(N3CCCCC3)c2n1"
  ANSWER LABEL: "inactive"
- COMPOUND: "N=c1nc(N2CCCCC2)cc(N)n1O"
  ANSWER LABEL: "inactive"
- COMPOUND: "COc1ccc2cc1Oc1ccc(cc1)C[C@H]1c3c(cc4c(c3Oc3cc5c(cc3OC)CCN(C)[C@@H]5C2)OCO4)CCN1C"
  ANSWER LABEL: "inactive"
- COMPOUND: "CCCCCCCCCCCCCCCCOP(=O)([O-])OCC[N+](C)(C)C"
  ANSWER LABEL: "active"
- COMPOUND: "Cn1cc[nH]c1=S"
  ANSWER LABEL: "inactive"
